The measurements presented in this section are drawn from ChEMBL document CHEMBL1201862.

Tested on: HCT-116
Test: NCI tumour cell line growth inhibition, 48 h
Calls of active or inactive are those of the source. Rule as the data show it: active = GI50 up to about 1.1 µM and inactive = higher.
Labels: 1 = active, -1 = inactive

CN(C)CCNC(=O)c1ccc(NCCCN(C)CCCNc2ccc3c(=O)n(CCN(C)C)c(=O)n4c5ccccc5c(=O)c2c34)c2c(O)c3ccccc3nc12; 1
COC(=O)c1c([N+](=O)[O-])ncn1[C@H]1OC[C@@H](OC(C)=O)[C@@H](OC(C)=O)[C@@H]1OC(C)=O; -1
COc1ccc(OC)c(-c2cc(O)c3cc4c(cc3n2)OCO4)c1; -1
O=C1c2ccccc2-c2c1c1ccccc1c(=O)n2Cc1ccccc1; -1
O=C1C2C3C=CC(C2C(=O)N1CN1CCOCC1)C1C2C(=O)N(CN4CCOCC4)C(=O)C2C31 (configuration not stated); -1
CC1(C)COC(c2cccc(C(O)c3ccc(Cl)cc3)c2)=N1 (configuration not stated); -1
CC1(C)C(=O)/C(=C/c2ccccc2)C(C)(C)C1(C)C; -1
C/C(=N\O)c1sc(-n2nc(-c3ccccc3)cc2-c2ccccc2)nc1C; -1
Cc1c2cccc-2c(OCCOC(=O)n2ccnc2)cc2c1[nH]c1ccccc12; -1
CC(=O)O[C@H]1CC(C)(C)C(=C=C/C(C)=C/C=C/C=C/C=C(C)/C=C2C=C(/C=C/[C@@]34O[C@]3(C)C[C@@H](O)CC4(C)C)C(=O)O/2)[C@](C)(O)C1; -1
CCOC(=O)c1sc2nc(SC)nc3c2c1N=CN3c1ccccc1Cl; -1
COc1ccc(NC(=S)N/N=C(\c2ccccc2)c2ccccn2)cc1; 1
O=C(O)CN(CC(=O)O)Cc1cc(C#Cc2ccc(C#Cc3ccccc3)cc2)cc(CN(CC(=O)O)CC(=O)O)n1; -1
COC(=O)CN(CC1O[C@@H]2OC(C)(C)O[C@@H]2C1N=[N+]=[N-])C(=O)OCc1ccccc1 (some centres not stated); -1
Cn1c2ccccc2c2c3c(=O)[nH][nH]c(=O)c3c3c4ccccc4n(C)c3c21; -1
COc1ccc2c(c1)CC[C@@H]1C2CC[C@]2(C)C(=O)N(C)C(=O)CC12 (some centres not stated); -1
COc1ccc(C2OC(=O)c3ccc4ccccc4c32)c(C)c1 (configuration not stated); -1

====

Test system: XF498
Assay: NCI tumour cell line growth inhibition, 48 h
Active and inactive are the calls of the source. No stated cut-off is given here; in the data, active = GI50 up to about 1.1 µM and inactive = higher.
Labels: active, inactive

COc1c(Cl)c2c(c(OC)c1OC)-c1ccc(OC)c(=O)c(Cl)c1C(NC(C)=O)CC2 (centres undefined); active
COc1ccc(OC)c(NC(=O)CCC/C(CC(=O)c2ccc(O)c(OC)c2)=N\Nc2nnc(C)n2N)c1; inactive
Cc1cc(N(CCC#N)CCC#N)ccc1/N=N/c1ccccc1[N+](=O)[O-]; inactive
COc1cc(/C=C\c2ccc(SC)cc2)cc(OC)c1OC; active

====

System: MDA-MB-231
Experiment: NCI tumour cell line growth inhibition, 48 h
The source made the active and inactive calls. Rule as the data show it: active = GI50 up to about 1.1 µM and inactive = higher.
Observable: GI50

O=C1NC(=S)NC(=O)C1C(c1ccc(O)cc1)C1C(=O)NC(=S)NC1=O.c1ccncc1; > 100 µM (inactive)
Nc1ccccc1OCCCOc1ccccc1N; > 100 µM (inactive)
CN1CCN(C)C12C=c1ccccc1=CC21CC1; 38.4 µM (inactive)
COC(=O)[C@@](NC(=O)OCc1ccccc1)([C@H](C)O)C(F)(F)F; > 100 µM (inactive)
COn1oc(=O)c2ccccc21; > 100 µM (inactive)
COc1cc2c(cc1OCCCC(=O)Nc1cc(C(=O)Nc3cc(C(=O)Nc4cc(C(=O)NCCCN(C)C)n(C)n4)n(C)n3)n(C)n1)N=CC1CCCN1C2=O (configuration not stated); 24.2 µM (inactive)
CCOC(=O)c1sc2nc(SC)nc3c2c1N=CN3c1ccccc1Cl; 30.9 µM (inactive)
CC(=O)O[C@@]12[C@@H]3O[C@@]4(O)C[C@]5(C)[C@H]6C[C@@](C(C)C)(O[C@H]5c5ccoc5)O[C@H]1[C@]6(C4)O[C@]2(O)C(C)=CC3(C)C; > 100 µM (inactive)
CON(C)c1nc(N)c(C#N)c(C#N)c1C#N; > 10 µM (inactive)
COC(=O)c1c(C)cccc1C1CN=NC12Cc1cc(C)c(C)cc1C2=O (configuration not stated); 65.9 µM (inactive)
CC(C)c1ccc(/C=C2\CSCC3=C2N=C(S)NC3c2ccc(C(C)C)cc2)cc1 (configuration not stated); > 100 µM (inactive)
O=c1c(Cl)cc2nc3ccccc3sc-2c1Cl; 5.78 µM (inactive)
O=C(O)CN(CC(=O)O)Cc1cc(C#Cc2ccc(C#Cc3ccccc3)cc2)cc(CN(CC(=O)O)CC(=O)O)n1; 7.11 µM (inactive)
C[C@@H](NC(=O)[C@@H]1C[C@]1(C)COC(=O)c1cc([N+](=O)[O-])cc([N+](=O)[O-])c1)c1cccc2ccccc12; > 100 µM (inactive)
Cc1cc(C(=O)CBr)c(CN2C(=O)c3ccccc3C2=O)c(=O)n1C; 18.1 µM (inactive)
COC(=O)C1=C(OC(=O)/C(=C/c2ccc(Cl)cc2Cl)c2ccc(Cl)cc2Cl)C(C(=O)OC)[C@@]2(O)[C@@H](C(=O)OC)[C@H](C)C[C@@H]1[C@@H]2C(=O)OC (some centres not stated); 40 µM (inactive)
C=C(c1ccccc1)c1ccccc1-c1cc(-c2ccccc2)cc(-c2ccccc2)n1; > 100 µM (inactive)
